# Target Of Assay: Glycogen synthase kinase-3 beta (Homo sapiens)
# Measurement Setup: Compound concentration 20.0 uM
# Description: Thermal Shift Assay. Domain: start/stop: M26-R383
Please provide measured ΔTm for the entries that follow.
Give bare numbers, in °C.

Worked examples, 2 compounds total:
Recorded ΔTm of CC1=NN(c2ccc(C(=O)O)cc2)C(=O)/C1=C/c1ccc(-c2cc(C)c(C)cc2[N+](=O)[O-])o1 , please.
0.03

For the compound shown here, CCn1nc(C2CC2)cc1Nc1nc(C(=O)NC)nc2[nH]c3cc(-c4c(C)noc4C)c(OC)cc3c12 , give the reported ΔTm.
-1.43

Please look at the items below and tell me ΔTm for each one, in order.
1. COc1ccccc1C(=O)Nc1cc2c(cc1N1CCNC[C@H]1C)n(C)c(=O)n2C
2. C[C@@H]1CN(c2ncc(Cl)c(Nc3ccc4c(c3)n(CCC(C)(C)O)c(=O)n4C)n2)C[C@H](C)C1(F)F

[0.41, 4.11]

---

Hi there, I'd appreciate the recorded ΔTm for every entry that follows.
# Target Of Assay: Mitogen-activated protein kinase 1 (Homo sapiens)
# Measurement Setup: Compound concentration 20.0 uM
# Description: Thermal Shift Assay. Domain: start/stop: M1-S360
Non-standard residues stand in square brackets, D forms with d. Residues, ends and D or L forms follow the SMILES beside them. *: point of attachment. Benzoyl(4-tBu) = CC(C)(C)c1ccc(C(=O)*)cc1; Lys(Et2) = CCN(CC)CCCC[C@H](N)C(=O)O
Numbers only, in °C.

Sample answers from the record:
Return reported ΔTm; argument: CN(CCC(Oc1ccc(-c2ccccc2)cc1)c1ccc(F)cc1)CC(=O)O (centres undefined)
0.42

Query: ΔTm; subject: CCN(CC)CCCC[C@H](NC(=O)[C@H](CC(C)C)NC(=O)[C@H](C)NC(=O)[C@H](Cc1ccccc1)NC(=O)c1ccc(C(C)(C)C)cc1)C(=O)N[C@@H](CO)C(=O)OC ({Benzoyl(4-tBu)}-FAL[Lys(Et2)]S-OMe)
0.31

# query: ΔTm of entry CCn1ncc2c(NC3CCOCC3)c(-c3nnc(Cc4sc(C)nc4C)o3)cnc21
0.54

If you can, please state the reported ΔTm value of O=C(NO)c1cnc(NC2(c3ccccc3)CC2)nc1 .
-0.3

ΔTm for Cc1nn2c(nc(O)c3cccnc32)c1C#N ?
0.18

For every listed record, write down its ΔTm.
1. OC[C@H]1O[C@@H](c2ccc(F)c(Cc3cc4ccccc4s3)c2)[C@H](O)[C@@H](O)[C@@H]1O
2. COC(=O)c1ccc(CN2CCC(O)(Cn3cnc4c(-c5ccc(CN)cc5)n(C)nc4c3=O)CC2)c(Cl)c1
3. C[C@H](N)C(=O)N1C[C@H](CCCB(O)O)[C@](N)(C(=O)O)C1
4. Cn1nc(C(C)(C)C)cc1C(=O)NC(Cc1cccc(Cl)c1)C(=O)NCC#N (centres undefined)

[0.05, 0.15, 0.12, 0.2]

---

# Target Of Assay: Aurora kinase A (Homo sapiens)
# Measurement Setup: Compound concentration 20.0 uM
# Description: Thermal Shift Assay. Domain: start/stop: E122-S403
Parameter: ΔTm

Solved entries:
Recorded ΔTm for Cc1nccn1CC1CCc2c(c3ccccc3n2C)C1=O (stereo not given) , please?
-1.95 °C

Bench note: what ΔTm did CC(=O)N1CCC(c2ccc(C(=O)NC(=N)N)cc2C(F)(F)F)CC1 show?
-0.69 °C

Reported ΔTm for CCc1oc2ccccc2c1C(=O)c1cc(Br)c(O)c(Br)c1 : what is it?
0.35 °C

// each listed molecule needs a value for ΔTm
1. CCNC(=O)c1noc(-c2cc(C(C)C)c(O)cc2O)c1-c1ccc(CN2CCOCC2)cc1
2. CCC(=O)N[C@H]1CC[C@@H](C(=O)N(C)c2ccc(-c3nc4ccccc4o3)cc2)C1
3. C[C@@H](Nc1nc2c(cnn2C2CCCC2)c(=O)[nH]1)C(=O)N1CC[C@H](F)C1

["0.68 °C", "-0.05 °C", "-2 °C"]

---

# Target Of Assay: Tyrosine-protein kinase ABL1 (Homo sapiens) (UniProt P00519)
# Sequence (P00519 whole entry): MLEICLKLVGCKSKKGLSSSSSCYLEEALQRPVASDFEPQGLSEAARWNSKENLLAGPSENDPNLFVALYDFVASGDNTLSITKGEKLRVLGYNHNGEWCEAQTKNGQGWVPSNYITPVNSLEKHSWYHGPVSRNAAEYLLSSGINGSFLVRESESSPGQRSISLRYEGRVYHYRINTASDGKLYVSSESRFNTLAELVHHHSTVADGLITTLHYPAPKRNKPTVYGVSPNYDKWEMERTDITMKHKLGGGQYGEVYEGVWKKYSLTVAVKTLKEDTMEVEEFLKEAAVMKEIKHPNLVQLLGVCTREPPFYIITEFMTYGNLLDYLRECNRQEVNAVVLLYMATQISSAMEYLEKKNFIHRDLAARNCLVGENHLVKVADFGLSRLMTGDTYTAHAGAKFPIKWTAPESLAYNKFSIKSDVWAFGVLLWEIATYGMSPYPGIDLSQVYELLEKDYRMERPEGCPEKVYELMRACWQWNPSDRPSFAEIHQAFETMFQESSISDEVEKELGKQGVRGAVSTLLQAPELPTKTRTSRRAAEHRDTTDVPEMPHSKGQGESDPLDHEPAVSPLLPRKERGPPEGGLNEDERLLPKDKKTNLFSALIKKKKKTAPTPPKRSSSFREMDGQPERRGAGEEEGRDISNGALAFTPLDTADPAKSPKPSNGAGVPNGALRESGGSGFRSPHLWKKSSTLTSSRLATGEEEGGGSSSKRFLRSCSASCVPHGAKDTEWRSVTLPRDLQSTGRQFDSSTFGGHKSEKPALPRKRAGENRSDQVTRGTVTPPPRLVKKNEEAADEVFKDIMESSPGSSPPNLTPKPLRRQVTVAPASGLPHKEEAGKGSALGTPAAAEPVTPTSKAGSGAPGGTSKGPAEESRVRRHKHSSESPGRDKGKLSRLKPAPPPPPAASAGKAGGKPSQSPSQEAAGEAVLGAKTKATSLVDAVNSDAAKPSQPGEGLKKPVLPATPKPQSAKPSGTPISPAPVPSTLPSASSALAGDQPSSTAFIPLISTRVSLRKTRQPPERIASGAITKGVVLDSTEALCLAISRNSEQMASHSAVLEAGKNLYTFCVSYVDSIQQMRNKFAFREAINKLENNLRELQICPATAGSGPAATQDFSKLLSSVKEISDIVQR
# Measurement Setup: Compound concentration 20.0 uM
# Description: Thermal Shift Assay. Domain: start/stop: S229-K512
Assign Fulfilled whenever ΔTm does not fall below 0.4 °C; assign Not fulfilled whenever it does.

These recorded examples may help you get a feel for the data.
Decide: ΔTm of CCc1c(C#N)c(S[C@@H](C(N)=O)c2ccccc2)nc(N(C)C)c1C#N >= 0.4 °C?
Fulfilled

Is ΔTm for CCOC(=O)NCCCC(=O)NCCc1ccccc1 at or above 0.4 °C?
Not fulfilled

hey, is ΔTm for this one >= 0.4 °C? CN(Cc1cc(Br)cc(Br)c1N)C1CCCCC1
Not fulfilled

Identify whether the reported ΔTm of the following compound is 0.4 °C or greater: Cc1ccc(NC2=CC(=O)c3sc(C)nc3C2=O)cc1
Not fulfilled

For this compound, is measured ΔTm 0.4 °C or higher? CNCC[C@@H](Oc1ccccc1C)c1ccccc1
Not fulfilled

Given the entry COc1ccc(-c2c(-c3ccc(C#N)c(F)c3)nc(N3CCC(N)CC3)n(C)c2=O)cc1F , answer whether its ΔTm meets or surpasses 0.4 °C.
Fulfilled

# bool: ΔTm of CCCOc1cccc(Oc2cc3c(cc2NS(=O)(=O)c2cccc(C(=O)NCCOCCOCCOCC(=O)N[C@H](C(=O)N4C[C@H](O)C[C@H]4C(=O)NCc4ccc(-c5scnc5C)cc4)C(C)(C)C)c2)n(C)c(=O)n3C)c1 >= 0.4 °C
Not fulfilled

Determine whether this compound has ΔTm no lower than 0.4 °C: Cn1c(=O)c2c(nc(N3CCNCC3)n2Cc2nnc(-c3ccc(Cl)c(Cl)c3)o2)n(C)c1=O
Fulfilled

Please examine the following record next.
Please check the record N=C(N)NC(=O)c1cnn(-c2cccc3ncccc23)c1C1CC1 and state if its ΔTm is at or above 0.4 °C.
Fulfilled

---

# Target Of Assay: Casein kinase I isoform delta (Homo sapiens) (UniProt P48730)
# Sequence (P48730 whole entry, looked up, canonical isoform): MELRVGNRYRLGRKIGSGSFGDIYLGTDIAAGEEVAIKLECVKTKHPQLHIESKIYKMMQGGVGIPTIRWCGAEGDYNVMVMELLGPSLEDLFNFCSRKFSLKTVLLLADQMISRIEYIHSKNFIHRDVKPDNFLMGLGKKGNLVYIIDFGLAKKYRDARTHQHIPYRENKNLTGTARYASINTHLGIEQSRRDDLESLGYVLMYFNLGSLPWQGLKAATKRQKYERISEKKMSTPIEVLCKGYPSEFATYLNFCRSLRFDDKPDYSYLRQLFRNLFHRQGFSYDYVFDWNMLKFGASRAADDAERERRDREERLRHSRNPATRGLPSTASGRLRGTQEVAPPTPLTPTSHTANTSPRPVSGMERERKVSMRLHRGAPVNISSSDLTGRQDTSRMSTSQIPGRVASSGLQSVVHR
# Measurement Setup: Compound concentration 20.0 uM
# Description: Thermal Shift Assay. Domain: start/stop: M1-K294
Parameter: ΔTm (°C)
Numbers only, in °C.

Completed entries (count: 10):
Given the entry FC(F)(F)Cn1cc(-c2ccncc2)c(-c2ccc(OCc3ccc4ccccc4n3)cc2)n1 , report its measured ΔTm.
1.23

Requested field: ΔTm. Item: N[C@@H](CC(=O)Nc1ccc(Oc2cc(F)c(F)cc2Br)cc1)C(=O)O
0.11

# ΔTm lookup, item Nc1ccccc1NC(=O)c1ccc(CNc2nccc(-c3cccnc3)n2)cc1
2.88

Name the reported ΔTm value associated with the compound O=c1[nH]c(Oc2cnn(Cc3ccccc3)c2)nc2cnccc12
-0.09

# query: ΔTm of entry CN(C)Cc1ccc(S(=O)(=O)n2ccc(/C=C/C(=O)NO)c2)cc1
0.25

Give the measured ΔTm of CC(=O)N[C@@H](C)C(=O)N[C@@H](CCC(=O)O)C(=O)N[C@H](C(=O)N[C@@H](C=O)CC(=O)O)C(C)C .
0.14

Need ΔTm, item O=c1[nH][nH]c(=O)c2cc(OCc3ccsc3)ccc12
-0.03

Data request, read-out ΔTm, for CC(C)Nc1cc(-c2c[nH]c(C(=O)N[C@H](CO)c3cccc(Cl)c3)c2)c(Cl)cn1
0.57

Given the entry CN(CCCN1c2ccccc2CCc2ccccc21)CC(=O)c1ccc(Cl)cc1 , report its measured ΔTm.
-0.19

Requested read-out: ΔTm. Entry: CN(CCC(Oc1ccc(-c2ccccc2)cc1)c1ccc(F)cc1)CC(=O)O (centres undefined)
-0.12

Dear colleague, could you please provide ΔTm for the compounds listed below?
1. CCCC(NC(=O)C(CC(C)C)NC(=O)OCc1ccccc1)C(=O)C(=O)NCc1ccccn1 (racemic)
2. N#Cc1ccc(-c2c3n(c4cccnc24)CCN(C2CC2)C3=O)cc1F
3. O=C(NCC1(c2nc(-c3ccccc3)cs2)CCOCC1)c1cccc(-c2noc(C(F)(F)F)n2)c1
4. CCCCCCCC(=O)N[C@H](CN1CCCC1)[C@H](O)c1ccc2c(c1)OCCO2

[0.03, -0.26, 0.15, -0.32]

Here are 5 compounds. What values of ΔTm were reported for them?
1. CC(C)[C@@H]1C(=O)N(S(C)(=O)=O)[C@@H]2CCN(C(=O)/C=C/CN3CCCCC3)[C@H]21
2. CCCSc1nc(N[C@@H]2C[C@H]2c2ccc(F)c(F)c2)c2nnn([C@@H]3C[C@H](OCCO)[C@@H](O)[C@H]3O)c2n1
3. Cn1c(OC[C@H]2CC[C@H](C(F)(F)F)CC2)nn2c(C3CCOCC3)ncc2c1=O
4. COc1ccc(CNc2nc(N3CCC[C@H]3CO)ncc2C(=O)NCc2ncccn2)cc1Cl
5. COc1ccc(C(=O)N[C@H](C(=O)N2CCC[C@H]2C(=O)N[C@H](C(=O)C(F)(F)F)C(C)C)C(C)C)cc1

1: 0.11; 2: -0.02; 3: -0.45; 4: 0.12; 5: -0.09

---

Can you tell me ΔTm for the items I'm about to list?
# Target Of Assay: Transcription intermediary factor 1-alpha (Homo sapiens) (UniProt O15164)
# Sequence (O15164 whole entry): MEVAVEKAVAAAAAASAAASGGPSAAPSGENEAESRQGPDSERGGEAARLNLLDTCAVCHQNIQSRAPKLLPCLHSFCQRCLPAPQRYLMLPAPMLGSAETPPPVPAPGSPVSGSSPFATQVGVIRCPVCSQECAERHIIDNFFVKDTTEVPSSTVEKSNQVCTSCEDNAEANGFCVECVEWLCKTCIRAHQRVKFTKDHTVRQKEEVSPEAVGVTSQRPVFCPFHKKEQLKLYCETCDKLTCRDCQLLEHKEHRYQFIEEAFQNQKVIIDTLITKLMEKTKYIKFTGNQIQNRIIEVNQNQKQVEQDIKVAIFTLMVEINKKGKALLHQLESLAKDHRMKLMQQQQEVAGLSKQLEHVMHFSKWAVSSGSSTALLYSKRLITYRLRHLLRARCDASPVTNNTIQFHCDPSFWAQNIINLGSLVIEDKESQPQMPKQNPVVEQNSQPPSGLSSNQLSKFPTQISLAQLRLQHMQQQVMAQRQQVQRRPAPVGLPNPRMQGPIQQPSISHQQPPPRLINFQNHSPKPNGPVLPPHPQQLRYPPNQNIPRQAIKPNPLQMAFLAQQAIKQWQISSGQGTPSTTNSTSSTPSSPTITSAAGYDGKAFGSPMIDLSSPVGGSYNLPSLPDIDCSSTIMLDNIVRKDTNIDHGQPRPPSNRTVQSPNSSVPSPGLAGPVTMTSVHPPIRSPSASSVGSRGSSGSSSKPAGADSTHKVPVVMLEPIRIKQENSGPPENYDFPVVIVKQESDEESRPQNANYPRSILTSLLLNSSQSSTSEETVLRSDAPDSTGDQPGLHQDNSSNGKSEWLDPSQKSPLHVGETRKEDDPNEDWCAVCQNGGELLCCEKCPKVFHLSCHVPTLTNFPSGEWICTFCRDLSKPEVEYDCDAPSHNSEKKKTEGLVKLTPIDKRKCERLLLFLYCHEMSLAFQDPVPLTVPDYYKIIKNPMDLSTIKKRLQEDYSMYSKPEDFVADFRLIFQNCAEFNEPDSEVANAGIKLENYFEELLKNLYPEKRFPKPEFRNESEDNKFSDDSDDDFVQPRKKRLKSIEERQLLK
# Measurement Setup: Compound concentration 20.0 uM
Residues, ends and D or L forms follow the SMILES beside them.
Give bare numbers, in °C.

Requested field: ΔTm. Item: N#Cc1c(N)[nH]c2cc(/C=C/c3cccc(F)c3)ccc12
1.03

Param item = O=C1c2ccccc2C(=O)c2oc(-c3ccccc3)nc21 ; retrieve measured ΔTm.
1.13

Report ΔTm for O=C1Nc2ccccc2C2(CCN(CC(Cc3ccccc3)Nc3nc4ccc(F)cc4s3)CC2)N1 (stereo not drawn) please.
0.18

Param item = O=C(NO)C(c1ccc(-c2ncc(C(F)(F)F)cn2)cc1)c1ccccc1F (stereo not drawn) ; retrieve measured ΔTm.
-0.84

Which ΔTm reading was recorded for the molecule Cn1c(OC[C@H]2CC[C@H](C(F)(F)F)CC2)nn2c(C3CCOCC3)ncc2c1=O ?
-1.13

Respectfully, I request ΔTm for each entry included below.
1. CN1CCN(c2ccc3nc(-c4c(N)c5c(F)cccc5[nH]c4=O)[nH]c3c2)CC1
2. CC(=O)N[C@H](C(=O)N[C@@H](CC(=O)O)C(=O)N[C@H](C(=O)N[C@@H](C)C(=O)N[C@H](C=O)CC(=O)O)C(C)C)C(C)C (Ac-VDVAD-aldehyde)
3. CCOC(=O)NCCCC(=O)NCCc1ccccc1
4. CN1CCN(c2nc(-c3ccc(C(=O)NC4(C(=O)NCC#N)CCCCC4)cc3)cs2)CC1

1: -0.57; 2: -0.67; 3: -0.68; 4: -0.66

For every item in the list below, what is its measured ΔTm?
1. COc1ccc(CC[C@H]2CCC[C@@H](CCc3ccc(OC)cc3)N2C[C@@H](O)CO)cc1
2. CC(C)(C)OC(=O)Nc1ccc(-c2cc(C(=O)NCCCCCCC(=O)NO)no2)cc1
3. Cc1c(Nc2ccc(S(=O)(=O)N3CCN(C)CC3)cc2F)nc2ccc(-c3cnn(C4CC4)c3)cn2c1=O

1. -0.71
2. -2.07
3. -1.92

For the 6 molecules below, give their ΔTm values.
1. CC(=O)O[C@]1(C(C)=O)CC[C@H]2[C@@H]3CCC4=CC(=O)CCC4=C3[C@@H](c3ccc(N(C)C)cc3)C[C@@]21C
2. Nc1ncnc2c1ncn2[C@@H]1O[C@H](C(=O)N2CCN(CC(=O)Nc3cccc4c3CNC4=O)CC2)[C@@H](O)[C@H]1O
3. NC(=O)C1CN(CCCCC(c2ccc(F)cc2)c2ccc(F)cc2)CCN1CC(=O)Nc1c(Cl)cc(N)cc1Cl (stereo not drawn)
4. N[C@@H](CC(=O)Nc1ccc(Oc2cc(F)c(F)cc2Br)cc1)C(=O)O
5. CNc1nccc(CN(CC2CCNCC2)S(=O)(=O)c2ccc(S(=O)(=O)N(Cc3ccc(Cl)cc3)C3CCCC3)cc2)n1
6. Cc1noc2c1-c1ccccc1C(c1ccc(Cl)cc1)=N[C@H]2CC(N)=O

1. -1.79
2. -0.61
3. 4.39
4. 0.54
5. -0.52
6. -0.29
